# test_method_notes: Log P value at the pH of 7.4
# Type: physicochemical
# run_conditions: octanol/water, pH 7.4; read-out: LogD7.4
Below, each entry is listed alongside its reported logD.
Give only the figure.

In the examples that follow, each entry is paired with its recorded logD.
structure_string	endpoint_result
CCN1C[C@@H]([C@H](O)[C@H](CC2CCCCC2)NC(=O)[C@H](Cc2cnc[nH]2)NC(=O)[C@@H](CC(=O)N(C)CCOCOC)Cc2ccccc2)OC1=O	2.49
CCN1C[C@@H]([C@H](O)[C@H](CC2CCCCC2)NC(=O)[C@H](Cc2cnc[nH]2)NC(=O)[C@@H](CC(=O)N(C)CCOC)Cc2ccccc2)OC1=O	2.45

Let us examine a further case.
Please report the recorded logD for CCN1C[C@@H]([C@H](O)[C@H](CC2CCCCC2)NC(=O)[C@H](Cc2cnc[nH]2)NC(=O)[C@H](Cc2ccc(OC)cc2)NC(=O)N2C[C@H](OCOC)[C@H](OCOC)C2)OC1=O .
2.06

* * *

# tested_on: Renin (Macaca fascicularis)
# test_method_notes: Inhibitory activity against monkey plasma renin at pH 7.4
metric_name: IC50

Please report the recorded IC50 for CC(C)C(=O)N[C@@H](Cc1ccccc1)C(=O)N[C@@H](Cc1cnc[nH]1)C(=O)N[C@@H](CC1CCCCC1)[C@@H](O)[C@@H](O)CN=[N+]=[N-] .
290 pM

* * *

# test_method_notes: Solubility at 37 degree C and pH of 7.4
# Format: physicochemical
# run_conditions: pH 7.4; read-out: S
metric_name: solubility (mM)
Your answer should be a plain number; it is taken to be in mM.

In the examples that follow, each entry is paired with its recorded solubility.
structure_string	solubility, mM
CCN1C[C@@H]([C@H](O)[C@H](CC2CCCCC2)NC(=O)[C@H](Cc2c[nH]cn2)NC(=O)[C@H](Cc2ccc(OC)cc2)NC(=O)N(C)CCOCOC)OC1=O	2.1
CCN1C[C@@H]([C@H](O)[C@H](CC2CCCCC2)NC(=O)[C@H](Cc2cnc[nH]2)NC(=O)[C@@H](CC(=O)N(C)CCO)Cc2ccccc2)OC1=O	5.2
CCN1C[C@@H]([C@H](O)[C@H](CC2CCCCC2)NC(=O)[C@H](Cc2c[nH]cn2)NC(=O)[C@@H](CC(=O)N(C)CCOCOCCOC)Cc2ccccc2)OC1=O	5.4

Please report the recorded solubility for CCN1C[C@@H]([C@H](O)[C@H](CC2CCCCC2)NC(=O)[C@H](Cc2cnc[nH]2)NC(=O)[C@@H](CC(=O)N2C[C@H](OCOCCOC)[C@H](OCOCCOC)C2)Cc2ccccc2)OC1=O .
8.7

Please report the recorded solubility for CCN1C[C@@H]([C@H](O)[C@H](CC2CCCCC2)NC(=O)[C@H](Cc2cnc[nH]2)NC(=O)[C@@H](CC(=O)N(C)CCOC)Cc2ccccc2)OC1=O .
3.4

Please report the recorded solubility for CC(C)C(=O)N[C@@H](Cc1ccccc1)C(=O)N[C@@H](Cc1cnc[nH]1)C(=O)N[C@@H](CC1CCCCC1)[C@@H](O)[C@@H](O)CN=[N+]=[N-] .
0.045

* * *

# tested_on: Renin (Homo sapiens)
# Sequence (P00797 whole entry): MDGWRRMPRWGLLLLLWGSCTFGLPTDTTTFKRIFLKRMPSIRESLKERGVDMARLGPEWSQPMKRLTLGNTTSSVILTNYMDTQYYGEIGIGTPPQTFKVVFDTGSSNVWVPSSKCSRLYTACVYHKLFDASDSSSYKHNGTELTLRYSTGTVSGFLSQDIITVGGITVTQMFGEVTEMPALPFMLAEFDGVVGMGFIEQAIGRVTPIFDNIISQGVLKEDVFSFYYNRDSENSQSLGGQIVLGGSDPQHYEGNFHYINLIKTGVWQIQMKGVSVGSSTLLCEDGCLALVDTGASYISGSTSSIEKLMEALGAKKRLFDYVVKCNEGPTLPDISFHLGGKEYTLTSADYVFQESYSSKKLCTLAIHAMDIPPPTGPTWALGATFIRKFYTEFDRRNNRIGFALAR
# test_method_notes: Inhibitory activity against purified human renal renin at pH 6.5
# Type: functional
metric_name: IC50
Don't forget the unit after the value.

In the examples that follow, each entry is paired with its recorded IC50.
structure_string	IC50
CCN1C[C@@H]([C@H](O)[C@H](CC2CCCCC2)NC(=O)[C@H](Cc2cnc[nH]2)NC(=O)[C@@H](CC(=O)N(C)CCO)Cc2ccccc2)OC1=O	0.85 nM
CCN1C[C@@H]([C@H](O)[C@H](CC2CCCCC2)NC(=O)[C@H](Cc2cnc[nH]2)NC(=O)[C@@H](CC(=O)N(C)CCOC)Cc2ccccc2)OC1=O	0.59 nM
CCN1C[C@@H]([C@H](O)[C@H](CC2CCCCC2)NC(=O)[C@H](Cc2c[nH]cn2)NC(=O)[C@H](Cc2ccc(OC)cc2)NC(=O)N2C[C@@H](O)[C@@H](O)C2)OC1=O	6.9 nM
CCN1C[C@@H]([C@H](O)[C@H](CC2CCCCC2)NC(=O)[C@H](Cc2cnc[nH]2)NC(=O)[C@H](Cc2ccc(OC)cc2)NC(=O)N2C[C@H](OCOC)[C@H](OCOC)C2)OC1=O	12 nM

Please report the recorded IC50 for CCN1C[C@@H]([C@H](O)[C@H](CC2CCCCC2)NC(=O)[C@H](Cc2cnc[nH]2)NC(=O)[C@@H](CC(=O)N2C[C@H](OCOCCOC)[C@H](OCOCCOC)C2)Cc2ccccc2)OC1=O .
1.6 nM

Origin of measurements: ChEMBL document CHEMBL1124843
